# target desc: human estrogen receptor α (hERα) (Homo sapiens, UniProt P03372)
# assay method text: antagonistic activity in CHO cells co-transfected with hERα, rat oxytocin promoter and luciferase reporter gene
# Type: cell-based
# study conditions: antagonism of 17β-estradiol-induced transactivation, CHO-hERα-RO-LUC; read-out: ERα pIC50 (converted)
Counter-ions that a name gives are not always drawn.
parameter measured: IC50 (nM)

molecule CCCN1CC(Oc2ccc(C(=O)c3c(-c4ccc(O)cc4)sc4cc(O)ccc34)cc2F)C1.Cl [compound 7u, hydrochloride] , IC50 observed: 0.794

a = CCCN1CC(Oc2ccc(C(=O)c3c(-c4ccccc4Cl)noc3-c3ccc(O)cc3)cc2)C1.Cl [compound 6m, hydrochloride]
b = CCCN1CC(Oc2ccc(C(=O)c3c(-c4ccccc4Cl)noc3-c3ccccc3)cc2)C1 [compound 7ao, hydrochloride]
Input: Select the item whose IC50 value is smaller, choosing between a and b . Your answer should be the label of the entry you select.
Output: a

* * *

# target desc: human estrogen receptor α (hERα) (Homo sapiens, UniProt P03372)
# assay method text: antagonistic activity in CHO cells co-transfected with hERα, rat oxytocin promoter and luciferase reporter gene
# Assay type: cell-based
# study conditions: antagonism of 17β-estradiol-induced transactivation, CHO-hERα-RO-LUC; read-out: ERα pIC50 (converted)
Where a name gives a salt, the structure may show the parent alone.
parameter measured: IC50 (nM)

Example compounds with recorded IC50:
compound CCCCN1CC(Oc2ccc(-c3c(-c4ccccc4Cl)noc3-c3ccc(O)cc3)cc2)C1 [compound 6h, hydrochloride] , IC50 observed: 0.631

compound CCCN1CC(Oc2ccc(C(=O)c3c(-c4ccccc4C)noc3-c3ccc(O)cc3)cc2)C1.Cl [compound 7aj, hydrochloride] , IC50 observed: 3.16

I = CCCN1CC(Oc2ccc(Oc3c(-c4ccc(O)cc4)sc4cc(O)ccc34)cc2)C1.O=C(O)C(F)(F)F [compound 6c, 2,2,2-trifluoroacetate]
II = CCCN1CC(Oc2ccc(-c3c(-c4cccc(C)c4C)noc3-c3ccc(O)cc3)cc2)C1.O=C(O)C(F)(F)F [compound 7ac, 2,2,2-trifluoroacetate]
Input: Select the item with the higher value of IC50 from the options I and II listed. Your answer should be the label of the entry you select.
Output: II

1 = CCCN1CC(Oc2ccc(C(=O)c3c(-c4ccc(O)cc4C)sc4cc(O)ccc34)cc2)C1.Cl [compound 7q, hydrochloride]
2 = CCCN1CC(Oc2ccc(C(OC)c3c(-c4ccccc4Cl)noc3-c3ccc(O)cc3)cc2)C1 (stereo not drawn)
Input: Select the item whose IC50 value is smaller, choosing between 1 and 2 . Your answer should be the label of the entry you select.
Output: 1
(1: 1.26 nM, 2: 7.94 nM)

* * *

# target desc: estrogen receptor alpha (Homo sapiens, UniProt P03372)
# Construct: endogenous in cells; host or cells: T47D human breast cancer cells (ATCC)
# assay method text: ERα downregulation assay in T47D breast cancer cells (ERα ELISA)
# Type: cell-based
# study conditions: downregulation of ERα relative to fulvestrant (100%), 1E-5 M, 24 hours, negative = upregulation
parameter measured: DR (%)

Example molecules with recorded DR (%):
molecule `CCCN1CC(Oc2ccc(C(=O)c3c(-c4sccc4C)noc3-c3ccc(O)cc3)cc2)C1.Cl` , DR (%) observed: 98

molecule `CCCN1CC(Oc2ccc(C(=O)c3c(-c4cc(F)cc(F)c4)sc4cc(O)ccc34)cc2)C1.Cl` , DR (%) observed: 98

molecule `C=C(c1ccc(OC2CN(CCC)C2)cc1)c1c(-c2ccccc2Cl)noc1-c1ccc(O)cc1` , DR (%) observed: 33

molecule `CCCN1CC(Oc2ccc(-c3c(-c4ccccc4CC)noc3-c3ccc(O)cc3)cc2)C1.O=C(O)C(F)(F)F` , DR (%) observed: 92

molecule `O=C(O)C(F)(F)F.O=C(c1ccc(OC2CN(C3CC3)C2)cc1)c1c(-c2ccc(O)cc2)sc2cc(O)ccc12` , DR (%) observed: 66

P = CCCN1CC(Oc2ccc(C(=O)c3c(-c4ccccc4Cl)noc3-c3ccc(N)cc3)cc2)C1.O=C(O)C(F)(F)F
Q = Cl.O=C(c1ccc(OC2CN(CCC(F)(F)F)C2)cc1)c1c(-c2ccc(O)cc2)sc2cc(O)ccc12
Input: Select the item whose DR (%) value is smaller, choosing between P and Q . Your answer should be the label of the entry you select.
Output: Q
(Q: 35%, P: 82%)

A = CCCN1CC(Oc2ccc(C(=O)c3c(-c4ccc(O)cc4)noc3-c3ccccc3C)cc2)C1.Cl
B = CCCN1CC(Oc2ccc(C(=O)c3c(-c4cccc(O)c4)noc3-c3ccccc3F)cc2)C1.Cl
Input: Select the item with the higher value of DR (%) from the options A and B listed. Your answer should be the label of the entry you select.
Output: A
(A: 88%, B: 51%)

P = CCCN1CC(Oc2ccc(C(=O)c3c(-c4ccccc4Cl)noc3-c3cccc4[nH]ncc34)cc2)C1.O=C(O)C(F)(F)F
Q = CCCN1CC(Oc2ccc(C(=O)c3c(-c4ncccc4C)noc3-c3ccc(O)cc3)cc2)C1.Cl
R = CC(C)CN1CC(Oc2ccc(-c3c(-c4ccccc4Cl)noc3-c3ccc(O)cc3)cc2)C1.Cl
Input: Hello, I need these entries ordered by DR (%), highest reading first. Thanks! # format: label list in the order the request specifies
Output: Q, P, R
(Q: 93%, P: 55%, R: 32%)
